- assay remarks: Chromatographic hydrophobicity index (CHI/HI, ϕ0) determination by isocratic RP-HPLC at pH 7
- Format: physicochemical
- reported conditions: chromatographic, isocratic RP-HPLC, ϕ0 = –log k'w/S, pH 7, 50 mM ammonium acetate in mQ H2O / MeCN (6–22%), linear regression of four log k' values per peptide, UV 254 nm; Figure 1A
Where a name gives a salt, the structure may show the parent alone. Residues, ends and D or L forms follow the SMILES beside them.
measurement label: Hydrophobicity index (HI)
Answer as a number with no unit attached.

Reference set (3 entries):
Q: Need Hydrophobicity index (HI), item CC(C)C[C@H](NC(=O)[C@H](Cc1ccc(O)c(SC(F)(F)F)c1)NC(=O)[C@H](C)N)C(=O)O [compound 11, TFA·H2N-Ala-(CF3S)Tyr-Leu-OH]
Result: 23.27

Q: Need Hydrophobicity index (HI), item CC(C)C[C@H](NC(=O)[C@H](Cc1c(SC(F)(F)F)[nH]c2ccccc12)NC(=O)[C@H](C)N)C(=O)O [compound 12, TFA·H2N-Ala-(CF3S)Trp-Leu-OH]
Result: 27.15

Q: Need Hydrophobicity index (HI), item CC(C)C[C@H](NC(=O)[C@H](Cc1c[nH]c2ccccc12)NC(=O)[C@H](C)N)C(=O)O [compound 10, TFA·H2N-Ala-Trp-Leu-OH] (H-Ala-Trp-Leu-OH)
Result: 19.13

---
Q: Need Hydrophobicity index (HI), item CC(C)C[C@H](NC(=O)[C@H](Cc1ccc(O)cc1)NC(=O)[C@H](C)N)C(=O)O [compound 9, TFA·H2N-L-Ala-L-Tyr-L-Leu-OH] (H-Ala-Tyr-Leu-OH)
Result: 11.37

----------
# reported intercept log k'w at MeCN% = 0; entries follow
- assay remarks: Chromatographic hydrophobicity index (CHI/HI, ϕ0) determination by isocratic RP-HPLC at pH 7
- Format: physicochemical
- reported conditions: linear regression of log k' versus MeCN content, pH 7, 50 mM ammonium acetate; Figure S5
Structures can show the parent of a compound that is named as a salt. Residues, ends and D or L forms follow the SMILES beside them.
Answer as a number with no unit attached.

Reference set (3 entries):
Q: Need intercept log k'w at MeCN% = 0, item CC(C)C[C@H](NC(=O)[C@H](Cc1c[nH]c2ccccc12)NC(=O)[C@H](C)N)C(=O)O [compound 10, TFA·H2N-Ala-Trp-Leu-OH] (H-Ala-Trp-Leu-OH)
Result: 2.3234

Q: Need intercept log k'w at MeCN% = 0, item CC(C)C[C@H](NC(=O)[C@H](Cc1ccc(O)c(SC(F)(F)F)c1)NC(=O)[C@H](C)N)C(=O)O [compound 11, TFA·H2N-Ala-(CF3S)Tyr-Leu-OH]
Result: 2.7107

Q: Need intercept log k'w at MeCN% = 0, item CC(C)C[C@H](NC(=O)[C@H](Cc1ccc(O)cc1)NC(=O)[C@H](C)N)C(=O)O [compound 9, TFA·H2N-L-Ala-L-Tyr-L-Leu-OH] (H-Ala-Tyr-Leu-OH)
Result: 1.6998

Now look at this entry.
Q: Need intercept log k'w at MeCN% = 0, item CC(C)C[C@H](NC(=O)[C@H](Cc1c(SC(F)(F)F)[nH]c2ccccc12)NC(=O)[C@H](C)N)C(=O)O [compound 12, TFA·H2N-Ala-(CF3S)Trp-Leu-OH]
Result: 3.1793
